- System: Huh-7.5 HCV Rluc replicon, luciferase luminescence, 72 h
- test: inhibition of HCV replicon replication, late-stage follow-up, orthogonal assay for HCV NS3 helicase inhibitor project, cell-based, luminescence, Renilla luciferase replicon (AID 623962)
- run conditions: at 10 µM
Calls of active or inactive are those of the source.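 The calls were made as follows: active = mean inhibition at 10 µM of 50% or more; inactive = mean inhibition at 10 µM below 50%.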
Give your call using only these classes: 1 for active, -1 for inactive

Some entries whose results are on file:
Cc1ccc2nc(-c3ccc4nc(-c5ccc(NC(=O)c6ccc(N)cc6)cc5)sc4c3)sc2c1S(=O)(=O)O
-1
Cc1ccc2nc(-c3ccc4nc(-c5ccc(NC(=O)c6cc(F)cc(C(F)(F)F)c6)cc5)sc4c3)sc2c1S(=O)(=O)O
1
CS(=O)(=O)c1ccc2nc(NC(=O)c3ccc4ncsc4c3)sc2c1
1
CN1CCN(Cc2cc(CN3CCN(C)CC3)c(O)c(=O)c(CN3CCN(C)CC3)c2)CC1
-1
Cc1ccc2nc(-c3ccc4nc(-c5ccc(NC(=O)Nc6ccc(C(F)(F)F)cc6)cc5)sc4c3)sc2c1S(=O)(=O)O
-1

q: # fetch the recorded call for Cc1ccc(C(=O)Nc2ccc(-c3nc4ccc(-c5nc6ccc(C)c(S(=O)(=O)O)c6s5)cc4s3)cc2)cc1 here
a: 1

q: # fetch the recorded call for Cc1ccc2nc(-c3ccc(NC(=O)c4ccc(NC(=O)OCC5c6ccccc6-c6ccccc65)cc4)cc3)sc2c1S(=O)(=O)O here
a: -1

q: # fetch the recorded call for Cc1ccc2nc(-c3ccc4nc(-c5ccc6nc(-c7ccc(N)cc7)sc6c5)sc4c3)sc2c1S(=O)(=O)O here
a: 1

* * *

- Test system: Huh-7.5 HCV Rluc replicon, luciferase luminescence, 72 h
- test: inhibition of HCV replicon replication, late-stage follow-up, orthogonal assay for HCV NS3 helicase inhibitor project, cell-based, luminescence, Renilla luciferase replicon (AID 623962)
- run conditions: at 10 µM; active compounds read high
A collection of compounds and their measured inhibition
Reply numerically in %, unit not repeated.

Cc1ccc2nc(-c3ccc(NC(=O)c4ccc(NC(=O)c5ccc(N)cc5)cc4)cc3)sc2c1S(=O)(=O)O
-42
COc1ccc(NC(=O)Nc2ccc(-c3nc4ccc(-c5nc6ccc(C)c(S(=O)(=O)O)c6s5)cc4s3)cc2)cc1
21

Consider Cc1ccc2nc(-c3ccc4nc(-c5ccc(NC(=O)c6ccc(Cl)cc6)cc5)sc4c3)sc2c1S(=O)(=O)O . Its measured inhibition is 42

Consider Cc1ccc2nc(-c3ccc(NC(=O)c4ccc(C(F)(F)F)cc4)cc3)sc2c1S(=O)(=O)O . Its measured inhibition is 11

* * *

- System: Huh-7.5 HCV Rluc replicon, luciferase luminescence, 72 h
- test: inhibition of HCV replicon replication, late-stage follow-up, orthogonal assay for HCV NS3 helicase inhibitor project, cell-based, luminescence, Renilla luciferase replicon (AID 623962)
- run conditions: at 10 µM; active compounds read high
A collection of compounds and their measured inhibition
Reply numerically in %, unit not repeated.

The examples below pair each entry with its known result.
Cc1ccc2nc(-c3ccc(NC(=S)Nc4ccccc4Br)cc3)sc2c1
80
Cc1ccc2nc(-c3ccc4nc(-c5ccc(NC(=O)c6cc(C(F)(F)F)ccc6F)cc5)sc4c3)sc2c1S(=O)(=O)O
39
Cc1ccc2nc(-c3ccc4nc(-c5ccc(NCc6ccccc6)cc5)sc4c3)sc2c1S(=O)(=O)O
-64
Cc1ccc2nc(-c3ccc4nc(-c5ccc(NC(=O)c6ccc7nc(-c8ccc(N)cc8)sc7c6)cc5)sc4c3)sc2c1S(=O)(=O)O
37
CCOc1ccc2nc(NC(=O)c3ccc4ncsc4c3)sc2c1
99

Consider Cc1ccc2nc(-c3ccc(NC(=O)c4ccc(NC(=O)Nc5ccccc5)cc4)cc3)sc2c1S(=O)(=O)O . Its measured inhibition is -64

Consider Cc1ccc2nc(-c3ccc4nc(-c5ccc(NC(=O)Nc6ccc(Cl)cc6)cc5)sc4c3)sc2c1S(=O)(=O)O . Its measured inhibition is 35

Consider Cc1cc2sc(-c3ccc4nc(-c5ccc(N)cc5)sc4c3)nc2cc1S(=O)(=O)O . Its measured inhibition is 28

* * *

- System: Huh-7.5 HCV Rluc replicon, luciferase luminescence, 72 h
- test: inhibition of HCV replicon replication, late-stage follow-up, orthogonal assay for HCV NS3 helicase inhibitor project, cell-based, luminescence, Renilla luciferase replicon (AID 623962)
- run conditions: at 10 µM
Calls of active or inactive are those of the source.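 How the source made its calls: active means mean inhibition at 10 µM of 50% or more; inactive means mean inhibition at 10 µM below 50%.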
Give your call using only these classes: yes for active, no for inactive

Some entries whose results are on file:
COc1ccc(C(=O)Nc2ccc(-c3nc4ccc(-c5nc6ccc(C)c(S(=O)(=O)O)c6s5)cc4s3)cc2)cc1
yes
Cc1ccc2c(sc(-c3ccc4c(c3)sc(-c3ccc5c(c3)sc(-c3ccc(N(C)C)cc3)[n+]5C)[n+]4C)[n+]2C)c1S(=O)(=O)O (tested in a mixture with another compound)
no
Cc1ccc2nc(-c3ccc4nc(-c5ccc(NC(=O)c6ccccc6)cc5)sc4c3)sc2c1S(=O)(=O)O
no
Cc1ccc2nc(-c3ccc(NC(=O)c4ccc(NC(=O)c5ccc(C(F)(F)F)cc5)cc4)cc3)sc2c1S(=O)(=O)O
no
Cc1ccc2nc(-c3ccc4nc(-c5ccc(NC(=O)c6ccc(N(C)C)cc6)cc5)sc4c3)sc2c1S(=O)(=O)O
no

q: # fetch the recorded call for O=C(Nc1nc2ccc(Br)cc2s1)c1ccc2ncsc2c1 here
a: no

q: # fetch the recorded call for Cc1ccc2nc(-c3ccc4nc(-c5ccc(NC(=O)c6ccccc6C(F)(F)F)cc5)sc4c3)sc2c1S(=O)(=O)O here
a: no

* * *

- System: Huh-7.5 HCV Rluc replicon, luciferase luminescence, 72 h
- test: inhibition of HCV replicon replication, late-stage follow-up, orthogonal assay for HCV NS3 helicase inhibitor project, cell-based, luminescence, Renilla luciferase replicon (AID 623962)
- run conditions: at 10 µM
Activity calls are given as the source filed them.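 The calls were made as follows: active = mean inhibition at 10 µM of 50% or more; inactive = mean inhibition at 10 µM below 50%.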
Give your call using only these classes: label 1 for active, label 0 for inactive

Some entries whose results are on file:
Cc1ccc2nc(-c3ccc(NC(=O)c4ccc(NC(=S)Nc5ccccc5)cc4)cc3)sc2c1S(=O)(=O)O
label 0
Cc1ccc2nc(-c3ccc4nc(NC(=O)c5ccc6ncoc6c5)sc4c3)sc2c1
label 1
Cc1ccc2nc(-c3ccc4nc(-c5ccc(NC(=O)c6c(F)cccc6C(F)(F)F)cc5)sc4c3)sc2c1S(=O)(=O)O
label 1

q: # fetch the recorded call for CC(=O)Nc1ccc(-c2nc3ccc(-c4nc5ccc(C)c(S(=O)(=O)O)c5s4)cc3s2)cc1 here
a: label 0

q: # fetch the recorded call for Cc1cc(C(O)(c2ccc(Nc3ccccc3)cc2)c2ccc(Nc3ccc(S(=O)(=O)O)cc3)cc2)ccc1N (configuration not stated) here
a: label 0

q: # fetch the recorded call for Cc1ccc2nc(-c3ccc4nc(-c5ccc(NC(=O)c6cccnc6)cc5)sc4c3)sc2c1S(=O)(=O)O here
a: label 1

q: # fetch the recorded call for Cc1ccc2nc(-c3ccc(NC(=O)c4ccc(NS(=O)(=O)c5ccccc5)cc4)cc3)sc2c1S(=O)(=O)O here
a: label 0

q: # fetch the recorded call for Cc1ccc2nc(-c3ccc(N)cc3)sc2c1S(=O)(=O)O here
a: label 0

q: # fetch the recorded call for Cc1ccc2nc(-c3ccc4nc(-c5ccc(NC(=O)c6cc(F)ccc6C(F)(F)F)cc5)sc4c3)sc2c1S(=O)(=O)O here
a: label 1

* * *

- Tested on: Huh-7.5 HCV Rluc replicon, luciferase luminescence, 72 h
- test: inhibition of HCV replicon replication, late-stage follow-up, orthogonal assay for HCV NS3 helicase inhibitor project, cell-based, luminescence, Renilla luciferase replicon (AID 623962)
- run conditions: at 10 µM
Active and inactive are the calls of the source.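 The calls were made as follows: active = mean inhibition at 10 µM of 50% or more; inactive = mean inhibition at 10 µM below 50%.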
Give your call using only these classes: true (1) for active, false (0) for inactive

Cc1ccc2nc(-c3ccc4nc(-c5ccc(NC(=O)c6cccc(Cl)c6)cc5)sc4c3)sc2c1S(=O)(=O)O
true (1)
Cc1ccc2nc(-c3ccc4nc(-c5ccc(NC(=O)Nc6ccc(F)cc6)cc5)sc4c3)sc2c1S(=O)(=O)O
false (0)
Cc1ccc2nc(-c3ccc4nc(-c5ccc(NC(=O)c6ccc(CNC(=O)OCC7c8ccccc8-c8ccccc87)cc6)cc5)sc4c3)sc2c1S(=O)(=O)O
false (0)
Cc1ccc2nc(-c3ccc4nc(-c5ccc(NC(=O)c6ccc(F)cc6)cc5)sc4c3)sc2c1S(=O)(=O)O
true (1)
Cc1ccc2nc(-c3ccc4nc(-c5ccc6nc(-c7ccc(N)cc7)sc6c5)sc4c3)sc2c1S(=O)(=O)O (tested in a mixture with another compound)
false (0)
Cc1ccc2nc(-c3ccc4nc(-c5ccc(NC(=O)c6ccc(Cl)c(Cl)c6)cc5)sc4c3)sc2c1S(=O)(=O)O
false (0)
Cc1ccc2nc(-c3ccc4nc(-c5ccc(NC(=O)c6ccc(C(F)(F)F)c(F)c6)cc5)sc4c3)sc2c1S(=O)(=O)O
false (0)
COc1ccc2sc(NC(=O)c3ccc4ncsc4c3)nc2c1
true (1)

Turning to the following compound.
q: # fetch the recorded call for Cc1ccc2nc(-c3ccc4nc(-c5ccc(NC(=O)c6ccc(NC(=O)OCC7c8ccccc8-c8ccccc87)cc6)cc5)sc4c3)sc2c1S(=O)(=O)O here
a: true (1)

Each recorded value in this set is attributed to PubChem BioAssay AID623962.
